Values were extracted from paper PMC12064818.

SYSTEM_NAME: FLuc-C-NLuc (firefly luciferase) (Photinus pyralis, UniProt P08659, form not given/L550V)
Sequence (P08659 2-550 L550V, form open): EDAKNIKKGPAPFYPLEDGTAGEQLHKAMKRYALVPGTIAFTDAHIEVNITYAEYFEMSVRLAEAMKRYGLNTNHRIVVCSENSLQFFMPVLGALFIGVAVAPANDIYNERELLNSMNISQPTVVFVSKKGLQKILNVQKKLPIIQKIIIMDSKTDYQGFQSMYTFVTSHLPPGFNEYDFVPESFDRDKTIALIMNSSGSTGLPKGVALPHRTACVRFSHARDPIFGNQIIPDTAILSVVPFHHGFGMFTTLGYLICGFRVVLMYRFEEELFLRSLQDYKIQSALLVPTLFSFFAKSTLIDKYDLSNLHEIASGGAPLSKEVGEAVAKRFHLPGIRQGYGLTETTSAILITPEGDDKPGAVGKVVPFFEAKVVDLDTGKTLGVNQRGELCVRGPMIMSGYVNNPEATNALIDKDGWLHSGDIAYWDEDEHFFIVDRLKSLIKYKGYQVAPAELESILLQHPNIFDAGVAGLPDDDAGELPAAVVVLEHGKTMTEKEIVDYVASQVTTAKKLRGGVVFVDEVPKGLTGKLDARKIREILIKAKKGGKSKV
PROCEDURE_DETAILS: Firefly luciferase (FLuc) enzymatic luminescence assay, FLuc-C-NLuc
Format: biochemical
Set-up: key: % normalized; no enzyme control = 100% inhibition, DMSO = 0
TEST_PARAMETERS: Log[Compound], M -5.91
MEASUREMENT_KIND: Enz
Give bare numbers.

Hi team, please reply with Enz for each item in this list.
1. COc1ccc(NC(=O)C2CCN(C(=O)c3ncn4c3COC(c3ccccc3)C4)CC2)cc1Cl (centres unmarked) [NCGC00449919]
2. CC1CCC(NC(=O)C2CCN(C(=O)c3ncn4c3COC(c3ccc(Cl)cc3)C4)CC2)CC1 (centres unmarked) [NCGC00449845]
3. O=C(Nc1cccc(F)c1)C1CCN(C(=O)c2ncn3c2COC(c2ccccc2)C3)CC1 (centres unmarked) [NCGC00449914]
4. CC(CNC(=O)C1CCN(C(=O)c2ncn3c2COC(c2ccccc2)C3)CC1)c1ccccc1 (centres unmarked) [compound 00449795]
5. CC(NC(=O)C1CCN(C(=O)c2ncn3c2COC(c2ccc(F)cc2)C3)CC1)c1ccc(F)cc1 (centres unmarked) [NCGC00449825]

Given back:
-49.98
4.57
-54.79
-29.78
4.09
